tested on: leukemia L1210 cell line; assay: Antitumor activity bioassay against leukemia L1210, T/C (%) at given dosage; assay type: in vivo; conditions: dosage amount 20 mg/kg
Values of T/C (%) strictly less than 200% map to Y, and values of at least 200% map to N.

Request: Quick check: T/C (%) of N[C@@H]1CCCC[C@H]1N.O=C([O-])CC[C@H](NC(=O)OCc1ccccc1)C(=O)[O-].[Pt+2] (racemic) [Pt(dach)(CbzGlu)] under 200%?
Response: Y

Request: Quick check: T/C (%) of Cc1ccc(S(=O)(=O)N[C@@H](CCC(=O)[O-])C(=O)[O-])cc1.N[C@@H]1CCCC[C@H]1N.[Pt+2] (racemic) [Pt(dach)(TsGlu)] under 200%?
Response: Y

Request: Quick check: T/C (%) of CCC(=O)N[C@@H](CCC(=O)[O-])C(=O)[O-].N[C@@H]1CCCC[C@H]1N.[Pt+2] (racemic) [Pt(dach)(ProGlu)] under 200%?
Response: N

Request: Quick check: T/C (%) of CC(=O)N[C@@H](CCC(=O)[O-])C(=O)[O-].N[C@@H]1CCCC[C@H]1N.[Pt+2] (racemic) [Pt(dach)(AcGlu)] under 200%?
Response: N

Request: Quick check: T/C (%) of N[C@@H]1CCCC[C@H]1N.O=C([O-])CC[C@@H](C(=O)[O-])N1C(=O)c2ccccc2C1=O.[Pt+2] (racemic) [Pt(dach)(PhthGlu)] under 200%?
Response: Y

New cases:
Request: Quick check: T/C (%) of N[C@@H]1CCCC[C@H]1N.O=C([O-])C[C@H](NC(=O)OCc1ccccc1)C(=O)[O-].[Pt+2] (racemic) [Pt(dach)(CbzAsp)] under 200%?
Response: Y

Request: Quick check: T/C (%) of CC(=O)N[C@@H](CC(=O)[O-])C(=O)[O-].CC(C)(CN)CN.[Pt+2] [Pt(dmpda)(AcAsp)] under 200%?
Response: Y

Request: Quick check: T/C (%) of CC(C)(C)C(=O)N[C@@H](CCC(=O)[O-])C(=O)[O-].N[C@@H]1CCCC[C@H]1N.[Pt+2] (racemic) [Pt(dach)(PivGlu)] under 200%?
Response: N
